Taken from the nanobody polyreactivity screen of Harvey et al. (2022).

Experiment: yeast display, Sf9 membrane polyspecificity reagent, FACS + sequencing; frameworks hold sequencing errors
QUANTITY KIND: polyreactivity (PSR sort gate)

{"MACROMOLECULE SEQUENCE": "QVQLVESGGGLVQAGGRLRLSCAASGSIFTPNAMGWYRQAPGKEMELVAAISSSSDRTYYADSVKGRFTISRDNAMITVYLQMNSLNPEDTAVYYCAAETNTWYLFDFWGQGTQVTVSS", "QUANTITY KIND": "polyreactivity (PSR sort gate)", "RECORDED MEASUREMENT": "high polyreactivity"}
{"MACROMOLECULE SEQUENCE": "QVQLVESGGGLVQAGGSLRLSCAASGRILRYNAMGWYRQAPGKERELVASISGNGGSTYYADSVKGRFTISRDNAKYTVYLQMNSLKPEDTAVYYWGQGTQVTVSS", "QUANTITY KIND": "polyreactivity (PSR sort gate)", "RECORDED MEASUREMENT": "low polyreactivity"}
{"MACROMOLECULE SEQUENCE": "QVQLVESGGGLVQAGGSLRLSCAASGNIFAINAMGWYRQAPGKERELVAAITWSSARTYYADSVKGRFTISRDNAKNTVYLQMNSLKPEDTAVYYCNAPALFEYDYWGQGTQVTVSS", "QUANTITY KIND": "polyreactivity (PSR sort gate)", "RECORDED MEASUREMENT": "high polyreactivity"}
{"MACROMOLECULE SEQUENCE": "QVQLVESGGGLVQAGGSLRLSCAASGFIFSLYAMGWYRQAPGKERELVAVITWSDGRTYYADSVKGRFTISRDNAKNTVYLQMNSLKQEDTAVYYCAAADWITEYDYWGQGTQVTVSS", "QUANTITY KIND": "polyreactivity (PSR sort gate)", "RECORDED MEASUREMENT": "low polyreactivity"}
{"MACROMOLECULE SEQUENCE": "QVQLVESGGGLVQAGRSLRLSCAASGRIFQWNAMGWYRQAPGKERELVADITYSGSSTNYADSVKGRFTISRDNAKNSVYLQMNSVKPEVSAVYYCTRDFYQYLSYFWHYVYWGQGTQETVSS", "QUANTITY KIND": "polyreactivity (PSR sort gate)", "RECORDED MEASUREMENT": "low polyreactivity"}

Could you now look at the following sequence, please?
Enquiry: What value of polyreactivity (PSR sort gate) has been reported for the following sequence? `QVQLVESGGGLVQAGGSLRLSCAASGSIINAYAMGWYRPAPGKERELVAAINSGGTTYYADSVKGRFTISRDNAKNTVYLQMISLKPEDTAVYYCNAVSKWAIYDYWGQGTQVTVSS`
Return: high polyreactivity

###

Assay: yeast display, Sf9 membrane polyspecificity reagent, FACS + sequencing; frameworks hold sequencing errors
QUANTITY KIND: polyreactivity (PSR sort gate)

{"MACROMOLECULE SEQUENCE": "QVQLVESGGGLVQAGGSLRLSCAASGRTFGVNAMGWYRQAPGKERELVAAINRGGSTYYADSVKGRFTISRDNAKNTVYLQMNSLKPEDTAVYYCAAYVSAVHRNSGYWGQGTQVTVSS", "QUANTITY KIND": "polyreactivity (PSR sort gate)", "RECORDED MEASUREMENT": "low polyreactivity"}
{"MACROMOLECULE SEQUENCE": "QVQLVESGGGLVQAGGSLRLSCAASGLIFEYYAMGWYRQAPGKERELGAAISGSGGSTYYADSVKGRFTISRDNAKNTVSLQMNSRKPEDTAVDYCNVVGYRWSEFDYWGQGTQVTVSS", "QUANTITY KIND": "polyreactivity (PSR sort gate)", "RECORDED MEASUREMENT": "low polyreactivity"}
